Tested on: RPMI-8226 leukemia
Assay: NCI tumour cell line growth inhibition, 48 h
metric name: TGI

INSERT INTO assay_data (compound, result) VALUES
  ('C[C@]12CC[C@@H]3c4ccc(O)cc4CC[C@H]3[C@@H]1C/C(=C\c1ccncc1)C2=O', '> 100 µM'),
  ('COC(=O)C1C(C(=O)OC)N(Cc2ccccc2)C(=O)N1Cc1ccccc1 (stereo not drawn)', '> 100 µM'),
  ('O=NN(Cc1ccc(Cl)cc1)C(C(=O)O)c1ccccc1 (stereo not drawn)', '> 100 µM');

###

Tested on: PC-3 prostate
Test: NCI tumour cell line growth inhibition, 48 h
Collected TGI values appear next to each entry.
metric name: TGI

INSERT INTO measurements (compound, result) VALUES
  ('COc1cc2c3c(n(C)c(=O)c2cc1OC)-c1cc2c(cc1/C3=C\CCCN1C(=O)c3ccccc3C1=O)OCO2', '24.7 µM'),
  ('CCOC(=O)CCc1cc(=O)oc2cc(O)cc(O)c12', '> 100 µM'),
  ('NC(=O)N/N=C(\Cc1nc2ccc(Cl)cc2[nH]c1=O)C(=O)Nc1ccc(Cl)cc1Cl', '> 100 µM'),
  ('Cc1ccc(-c2c3c([nH]c(=O)c2C#N)-c2cc(F)ccc2OC3)cc1', '> 100 µM'),
  ('Brc1ccc(CCNCCN2CCCCC2)cc1', '31.7 µM'),
  ('CCOc1cccc(/C=N/NC(=O)c2ccccc2Nc2ccnc(C(F)(F)F)c2)c1O', '> 39.1 µM'),
  ('COC(=O)c1cc2c3ccccc3[nH]c2c2ncccc12', '> 100 µM'),
  ('CN1C(=O)C2C(=O)N(Cc3ccccc3)CC(=O)N2c2cccnc21 (centres undefined)', '> 100 µM'),
  ('CC1(C)OCC(COC(=O)C=[N+]=[N-])O1 (centres undefined)', '> 100 µM');
